- CONDITION_SET: in n-propanol, 316.88 K
MEASURED_METRIC: solubility (mole fraction)
The reply should be a number, written without any unit.

[ask] Query: solubility (mole fraction); subject: CCCCCOC(=O)Nc1nc(=O)n([C@@H]2O[C@H](C)[C@@H](O)[C@H]2O)cc1F
[reply] 0.0687

====

- CONDITION_SET: in n-pentanol, 292.64 K
MEASURED_METRIC: solubility (mole fraction)
Give a plain numeric answer without units written out.

[ask] Name the reported solubility (mole fraction) value associated with the compound CCCCCOC(=O)Nc1nc(=O)n([C@@H]2O[C@H](C)[C@@H](O)[C@H]2O)cc1F
[reply] 0.0071

====

- CONDITION_SET: in n-octanol, 298.35 K
MEASURED_METRIC: solubility (mole fraction)
Give a plain numeric answer without units written out.

[ask] What solubility (mole fraction) value was documented for this molecule, CCCCCOC(=O)Nc1nc(=O)n([C@@H]2O[C@H](C)[C@@H](O)[C@H]2O)cc1F ?
[reply] 0.0076

====

- CONDITION_SET: in sec-butanol, 302.9 K
MEASURED_METRIC: solubility (mole fraction)
The reply should be a number, written without any unit.

[ask] Reported solubility (mole fraction) for CCCCCOC(=O)Nc1nc(=O)n([C@@H]2O[C@H](C)[C@@H](O)[C@H]2O)cc1F : what is it?
[reply] 0.0093

====

- CONDITION_SET: in n-hexanol, 317.75 K
MEASURED_METRIC: solubility (mole fraction)
No unit in the answer, only the number.

[ask] Look at this compound and give its reported solubility (mole fraction). CCCCCOC(=O)Nc1nc(=O)n([C@@H]2O[C@H](C)[C@@H](O)[C@H]2O)cc1F
[reply] 0.0333

====

- CONDITION_SET: in isopropanol, 316.88 K
MEASURED_METRIC: solubility (mole fraction)
API note: the answer field is a bare number with no unit suffix.

[ask] Entry under review: CCCCCOC(=O)Nc1nc(=O)n([C@@H]2O[C@H](C)[C@@H](O)[C@H]2O)cc1F . Reported solubility (mole fraction)?
[reply] 0.0241

====

- CONDITION_SET: in n-heptanol, 283.15 K
MEASURED_METRIC: solubility (mole fraction)
// no unit string in output, number only

[ask] Given CCCCCOC(=O)Nc1nc(=O)n([C@@H]2O[C@H](C)[C@@H](O)[C@H]2O)cc1F , state its recorded solubility (mole fraction).
[reply] 0.0025

====

- CONDITION_SET: in isobutanol, 288.1 K
MEASURED_METRIC: solubility (mole fraction)

[ask] What solubility (mole fraction) value was documented for this compound, CCCCCOC(=O)Nc1nc(=O)n([C@@H]2O[C@H](C)[C@@H](O)[C@H]2O)cc1F ?
[reply] 0.0029

====

- CONDITION_SET: in water, 312.95 K
MEASURED_METRIC: solubility (mole fraction)
Write the number on its own, no unit after it.

[ask] State the recorded solubility (mole fraction) for this entry: CCCCCOC(=O)Nc1nc(=O)n([C@@H]2O[C@H](C)[C@@H](O)[C@H]2O)cc1F
[reply] 0.0015

====

- CONDITION_SET: in ethylene glycol, 302.95 K
MEASURED_METRIC: solubility (mole fraction)
Quick one: just the number, no unit, thanks!

[ask] What measured solubility (mole fraction) goes with CCCCCOC(=O)Nc1nc(=O)n([C@@H]2O[C@H](C)[C@@H](O)[C@H]2O)cc1F ?
[reply] 0.0348
